# System: 186277-243-T-J2-PDC complex spheroid growth;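 further: luminescent signal used as a stand-in for viable cell amount; spheroids exposed to compounds for seven days before the viability read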
# protocolSummary: Anticancer human tumor 186277-243-T-J2-PDC patient-derived colon adenocarcinoma cell line growth inhibition [AhR]; active means viability on the fitted dose curve at most 10% of control; inactive means the rest
# runConditions: second compound 0.1 µM; first compound 10 µM
Valid outcomes are listed here; reply with one: Y (active), N (inactive)

compound	assignedLabel
CC1(C)CCC(CN2CCN(c3ccc(C(=O)NS(=O)(=O)c4ccc(NCC5CCOCC5)c([N+](=O)[O-])c4)c(Oc4cnc5[nH]ccc5c4)c3)CC2)=C(c2ccc(Cl)cc2)C1 + Cc1ccccc1N=Nc1ccc(NC(=O)c2ccnn2C)c(C)c1	N

Q: Could you please tell me the result logged for COc1cc(C2c3cc4c(cc3C(OC3OC5COC(C)OC5C(O)C3O)C3COC(=O)C23)OCO4)cc(OC)c1O (stereo not drawn) + Cc1cncc(-c2nc(NCCc3c[nH]c4ccccc34)c3ncn(C(C)C)c3n2)c1 in this assay?
A: N

Q: Could you please tell me the result logged for Nc1ccccc1NC(=O)c1ccc(CNC(=O)OCc2cccnc2)cc1 + CC(CO)NC(=O)c1cc(-c2ccc(Cl)cc2)nn(-c2cnn(C)c2)c1=O in this assay?
A: Y
